Origin of values: patent US20260242478A1

study target: T1, Anti-PSMA Fab
T1 construct: Biotinylated and captured on neutravidin coated plates in the phage ELISA; also called 006 PSMA Fab
procedure details: phage binding ELISA on captured anti-PSMA Fab; wells pre-incubated with PSMA antigen as competitor; anti-M13-HRP detection
property name: Phage binding ELISA signal, Anti-PSMA Fab with PSMA antigen

> print(dat)
                                      binder  result.value
 1  YEKLCEPRWMCDGF (Tested as clonal phage supernatant) [Phage-3577 (Peptide-180 library clone)]        0.0657
 2  YDVVCKPAWMCNGF (Tested as clonal phage supernatant) [Phage-3578 (Peptide-180 library clone)]        0.0676
 3  ESYTCVPMWMCTGF (Tested as clonal phage supernatant) [Phage-3582 (Peptide-180 library clone)]         0.088
 4  LGHWCSPTWMCMGF (Tested as clonal phage supernatant) [Phage-3581 (Peptide-180 library clone)]          0.11
 5  ESHLCRPAWMCTGF (Tested as clonal phage supernatant) [Phage-3588 (Peptide-180 library clone)]         0.089
 6  GMGMCVPTWMCTGM (Tested as clonal phage supernatant) [Phage-3579 (Peptide-180 library clone)]        0.0797
 7  NIMRCQPSWMCTGF (Tested as clonal phage supernatant) [Phage-3583 (Peptide-180 library clone)]         0.064
 8  ETFTCKPPWMCIGF (Tested as clonal phage supernatant) [Phage-3576 (Peptide-180 library clone)]         0.104
 9  QLAMCVPLWMCYGF (Tested as clonal phage supernatant) [Phage-3580 (Peptide-180 library clone)]         0.092
10  HEPVCRPEWMCQGF (Tested as clonal phage supernatant) [Phage-3587 (Peptide-180 library clone)]        0.0717
11  PSPICRPEWMCVWL (Tested as clonal phage supernatant) [Phage-3584 (Peptide-180 library clone)]        0.0954
12  TFMRCEPVWMCDGF (Tested as clonal phage supernatant) [Phage-3585 (Peptide-180 library clone)]        0.0709
13  NLGWCVPVWMCEGF (Tested as clonal phage supernatant) [Phage-3586 (Peptide-180 library clone)]         0.101
14  TTLMCTPQWMCDGF (Tested as clonal phage supernatant) [Phage-3589 (Peptide-180 library clone)]        0.0718
